Test system: OVCAR-4 (Ovarian Carcinoma)
Experiment: combination Emax (second highest fraction inhibited in the dose matrix, 72 h); higher = more inhibition; extreme values may be limits of the assay
Quick reference for combination Emax among some compounds
Number only, no unit.

Some entries whose results are on file:
CN(C)CCCOc1ccc(-c2ccc3ncc4c(c3c2)n(C2CCOCC2)c(=O)n4C)cn1 [AZD0156] + O=C(c1cc(Cc2n[nH]c(=O)c3ccccc23)ccc1F)N1CCN(C(=O)C2CC2)CC1 [Olaparib] (first compound max 3 µM, partner max 3 µM) = 0.149
C[C@@H](c1ccc2nccn2c1)n1nnc2ncc(-c3cnn(C)c3)nc21 [Savolitinib] + CN(CC[C@H](CSC1=CC=CC=C1)NC2=C(C=C(C=C2)S(=O)(=O)NC(=O)C3=CC=C(C=C3)N4CCC(CC4)[C@H](C5=CC=CC=C5C6=CC=C(C=C6)Cl)O)S(=O)(=O)C(F)(F)F)CCO [AZD4320] (first compound max 1 µM, 7x7, partner max 1 µM) = 0.126
COc1nnc2ccc(N3CCC(c4ccc(OCCN5CCN(C)C(=O)[C@H]5C)cc4)CC3)nn12 [AZD5153] + CC1(C)CCC(CN2CCN(c3ccc(C(=O)NS(=O)(=O)c4ccc(NCC5CCOCC5)c([N+](=O)[O-])c4)c(Oc4cnc5[nH]ccc5c4)c3)CC2)=C(c2ccc(Cl)cc2)C1 [Venetoclax] (first compound max 1 µM, 7x7, partner max 1 µM) = 0.444
Cc1cc2ncnn2cc1Nc1ncc2c(n1)n(C1CCOCC1)c(=O)n2C [AZD7648] + CN(C)CCCOc1ccc(-c2ccc3ncc4c(c3c2)n(C2CCOCC2)c(=O)n4C)cn1 [AZD0156] (first compound max 10 µM, 7x7, partner max 1 µM) = 0.185
Cc1c2c(nn1C)CSCc1cc(n(C)n1)CSc1cc(c3ccccc3c1)OCCCc1c(C(=O)O)n(C)c3c-2c(Cl)ccc13 [AZD5991] + C[C@@H](Nc1cc(F)cc(F)c1)c1cc(C(=O)N(C)C)cc2c(=O)cc(N3CCOCC3)oc12 [AZD8186] (first compound max 1 µM, 7x7, partner max 3 µM) = 0.288

Note to self: combination Emax recorded for Cc1c2c(nn1C)CSCc1cc(n(C)n1)CSc1cc(c3ccccc3c1)OCCCc1c(C(=O)O)n(C)c3c-2c(Cl)ccc13 [AZD5991] + CC1(C)CCC(CN2CCN(c3ccc(C(=O)NS(=O)(=O)c4ccc(NCC5CCOCC5)c([N+](=O)[O-])c4)c(Oc4cnc5[nH]ccc5c4)c3)CC2)=C(c2ccc(Cl)cc2)C1 [Venetoclax] (first compound max 1 µM, 7x7, partner max 1 µM) was 0.188

Hey, just so you know, these numbers are from the supplement of paper PMC11061612.
